# test.name: soluble on expression in E. coli; label from the status in PepcDB or PDB records

sequence.record	soluble on expression in E. coli
MDIRELVHLGRYAVWNAFEGKEIKVPEALKEKYSRNMGVFTTLKTYPEHNLRGCIGVPLPVYPLWYATVYSSLQAAFQDPRFYPLKKEEFDKVLWEITLLTPPEELKVPKEELPEQIEIGKHGLIIEKGEQKGLLLPQVPVEYGWSPVEFLEYTCLKAGLPKDCWKDKETKVYVFSGEVYQEKEPFGEVERVNLKLEHHHHHH	soluble
MALREFSSVKVGDQLPEKTYPLTRQDLVNYAGVSGDLNPIHWDDEIAKVVGLDTAIAHGMLTMGIGGGYVTSWVGDPGAVTEYNVRFTAVVPVPNDGKGAELVFNGRVKSVDPESKSVTIALTATTGGKKIFGRAIASAKLA	soluble

====

# test.name: soluble on expression in E. coli; label from the status in PepcDB or PDB records
measured.attribute: soluble on expression in E. coli

sequence.record	readout.value
MGSDKIHHHHHHMTTIHVSDLSKTYGTDTNVPVLSGVSFDLTSPAIHGLIGANGVGKTTLLRILAGQSRCEGVVEVDGQPAFDNPEVMDRCVLMGIDVPLPSTWRGTKLLSFAQHRYPRWDEARCAQLIDAFQVPVDKPYQSLSRGQKSALGIIIAFSATCDITLLDEPYLGLDVANRDLFYRELRAEQARCPRLIILSTHHINEASHVFDSVMVLKKDGVALQGDVESITGRVVELVGPKATIEGFVSHPARRIGEVHTAGGVAKVLAEARAEEWDQLSALGLRTHEVSLERAVMFLECD	not soluble
MRRLLKEQFEAELPEDIRFYMGGKSRVYAYKSCEFDEIASHRGIYFGTIERDGLRLSIEGSFIAGKLAKKNVIELDEESFGRWMRGEDIEADVKGYCIVKHGSYFAGCGKGNGRVLRNFVPKDRRVID	not soluble
MAEINIYQNPGQSLANIYKGFARQCNPGFVFPEAQTIEAWDIPLRLHPEFIPGGDISKADQQYSTLLAQEIANGVTIGFRMVNEKERVCNVEILPLLTSMAQNLDRIKARFGSGYLDRFKGSPNVYPTDVGFSTDASGGISQESGLLVSYGVNLRTLTPGTWQAMTLPEDIKALVGPGVGLRLDAPNFSDVFNTIKSGLRYTTAVTLLLAYFAAI	soluble
QTPVYLDTSKPIEERVKDALSRMTLEEKVKMTHAQSKFSSPGVPRLGIPEVWATDGPHGIRPEVLWDEWDQAGWTNDSCIAYPALTCLSATWNPEMSYLYGKSIGEEARYRKKDILLGPGVNIYRTPLNGRNFEYMGEDPYLSSMMVVPYIKGVQENGVAACVKHYALNNQEFNRHTTNVHLSDRALYEIYLPAFKAAVQEGGAWAIMGAYNLYSFSEDTDSGKLYKTQHACHNKRLLQDILRKEWGFDGVVVSDWGGVHDTFQAISNGLDMEFGSWTNGLSAGTRNAYDNYYLAHPYLKLIQDGTVGTKELDEKVSNILRLIFRTSMNPH	not soluble
KVGISMFNILQSTQLSSNTFDFWLEAPRIATHAQAGQFVILRIDEKGERIPLTIAETNPQAGSIRIIFQVIGKTTAALSQLKTSDSLLDITGPLGMPTEVKQYGTVMVVGGGVGIAAIYPIIKALKEAGNRVITILGARTAELVLLQEECRRYSDELIITTDDGSLGKKGLVTEAMEEVIARESVACSWAIGPSIMMKFCTLTAEKHQLPIYVSLNPIMIDGTGMCGGCRVTVDGTMKFACVDGPEFKGNEVNWDEFINRMKQYQEEEAVCFTDRLKEQVEKNG	not soluble
MKKIRLAVIGTGMAWERLHYPAIKELEDKYEIVALCNRTRKDAEEFAKKINLSMDRVYDDYNEMLKRQDIDAVDILVPIESNYTVSEAVAKAGKDFICEKPLAANREEAKKYLELSKKYNVRIMIAENYRYSDEYNKIRDIVNSGKIGDVVYFIKNNISCFPCEMTKDTFAATEWRQHPKFYGGAFLDAAVHDIAAMRHIFGAVECVQAFGKPQAEDFNPYVSVNAHILFKNGVIGYYTYYPSGIETQKPAVGFRIFGTKGEIYLEDKTCGIINVSYHDGTSELVNFIPERGFYNELLNYYNAINGTEQISVTPEMEYGDVKMVFDILDSVSFREIIYVDEEEPKRRLEIADDEAKIHPFLQ	not soluble
MADLLNVLKDKLSGKNVKIVLPEGEDERVLTAATQLQATDYVTPIVLGDETKVQSLAQKLDLDISNIELINPATSELKAELVQSFVERRKGKATEEQAQELLNNVNYFGTMLVYAGKADGLVSGAAHSTGDTVRPALQIIKTKPGVSRTSGIFFMIKGDEQYIFGDCAINPELDSQGLAEIAVESAKSALSFGMDPKVAMLSFSTKGSAKSDDVTKVQEAVKLAQQKAEEEKLEAIIDGEFQFDAAIVPGVAEKKAPGAKLQGDANVFVFPSLEAGNIGYKIAQRLGGYDAVGPVLQGLNSPVNDLSRGCSIEDVYNLSIITAAQALQ	not soluble
MSLNPLKCAVIGVGYLGKFHAEKYAALPGCELVAVVDADPVTAAEIGDRLGVRGLTDHRALLGKVDAVSVVVPTSLHHRVARDFLEAGAHVLVEKPITVTVEEADELIRIAKEKQRVLMVGHLERFNAAVLGLDLDHHKPLFIESHRLAPFKPRANDVSVVLDLMIHDIDIILDMVDSEVERIDAKGVAVLTGDIDIANARLQFKSGCVANVTASRVSLKVERKMRMFMPNAYVSVDFQNRVLARHRKGEGEMFPGVPEILSEESVFENGDALMEEIRHFLDCIREHREPLVSGAAGRRALATAIEITNLLKVQESRSEGHHHHHH	soluble
MEDGHISSWWVVDLGEEHQLMCNYYTFRQDGSRAFTRFWKFQGSMDGKTWTDLRVHEDDQTMCKAGQFASWPITAANALLPFRFFRLVLTGPTADTSTPWNFCICYLELYGYFR	not soluble
MSTWRDSLLPASFRGVGFFIEKAVVPVGRKGQLHEFPQRDEPYFESLGKQAQVHTLTAFIVGRDCFEKRDNLLQALEKDGAGELVHPWLGRMQVQV	not soluble
MKKIISLALALALSASAAELKMATTTSTDNTGLLDALKPLYEKESGNTLKWVAVGTGAALKMGEDCNADVLFVHSPKAEKEFMKKGFGVDRTPVMYNDFIIIADKSLASKFKGKNLKESLELIKNEKLTFISRGDKSGTDNKEKSLWKNLGGVPEKQSWYQQSGQGMLASIKIAEEKKGVILTDRGTYIKYEANEKGKPNLVIVNEGDDSLKNFYSVIATNPKHCKNVNYTEASKFIKWVTSDKTLNFIADFKLLNKPLFVIDAKTRKD	not soluble
MSLNLATLQSQFAKALHYQALGEDCDIASDEFTADERIQIYRNNFIVSLSEVLSATYPMVEALLGEECFEQIARQHVLSYPLKEGNVVHYGEGFQDTIMQFSQVIAQAPYSPEVARFEWHIDLARQAQYEQSNAAELKPLALLGEVSEEQQPALVLHLKKGCRSFDSNYAVFDLFSAIQTGQFEQLNINQLQQGVISIQANGEALCHALDADVFQLLQCLEQKQSLSEIPEVLLAHLNRIMALDIVDGFTLQSIEGHHHHHH	soluble

====

# test.name: soluble on expression in E. coli; label from the status in PepcDB or PDB records
measured.attribute: soluble on expression in E. coli

sequence.record	readout.value
MSLKTLLPTSTAGSLPKPSWLAQPEKLWSPWKLQDEELIEGKRDALRLSLNDQQQAGIDIVSDGEQTRQHFVTTFIEHLSGVDFEKRETVRIRNRYDASVPTVVGAVSREKPVFVEDAKFLRQQTRQPIKWALPGPMTMIDTLYDSHYKSREKLAWEFAKILNQEARELEAAGVDIIQFDEPAFNVFFDEVNDWGVATLEKAIEGLKCETAVHICYGYGIKANTDWKKTLGSEWRQYEEAFPKLQKSNIDLISLECHNSRVPMDLIELIRGKKVMVGAIDVATSAIETPEEVADTLRKALRFVDADKLYPCTNCGMAPLSRQVARSKLNALGAGAEIIRRELSVEGHHHHHH	soluble
ARVDQTPQRITKETGESLTINCVVRDSRCVLSTGYWYRKPPGSRNEESISDGGRYVETVNRGSKSFSLRINDLTVKDSGTYRCKPESRYGSYDAVCAALNDQYGGGTVVTVNAAAHHHHHH	soluble

====

# test.name: soluble on expression in E. coli; label from the status in PepcDB or PDB records

sequence.record	soluble on expression in E. coli
MHHHHHHRMKQLEDKVEELLSKNYHLENEVARLRSPPLLVGVVSDILEDGRVVVKSSTGPKFVVNTSQYINEEELKPGARVALNQQTLAIVNVLPTSKDPMVYGFEVEE	soluble
MGSDKIHHHHHHMKKKTTTVYVDKQYKLTRDVAPLSFMLPIKHSRRFPLLHFDESTGTNRELRYARNQKSPFVDKQDGNALLEPVIFEDGFLFVKKENQVLQQFLHYHPLNGTKFVEVDKSKDAAQVVDQLMIEADALVEAKKLSLEQLENVCRVLFNTNVDKLTTAEMKRDVLVFAKNNPQDFLDICSDPELKIMGMVQSFFDKGHLAYRKSKKEVWYNTPTNKTKMLNVPFGADGLDLVVSYLQSDEGIDVLKHLETL	not soluble
MLKKRKLGRRIGEIQAGEKLVFQAAIEDKDLLLYLGLTDDANPLYIQHDYASQTPFGKPVVPPVMLTGMITSAVSKYLPGPGSYITRQDLRFLRPVYHYETLEFLLEVADVDEAGHCVTLSVMATRGAETVLDGTLSVCPPHTLPRLDGRVLENF	not soluble
MGSDKIHHHHHHMKFKTVGNPNGPKILLIHPMFATSECFVNLVEYLKEDYFVITPTLDGHDINENSIFLSVEDEGNKVLAYLKDNSIKELDFMLGTSLGAIIAFEIYKRNEIRINKVYLDGGPFFKFGALLQKVAAKKFCNICSEVRQNPQKAINKIERLFKGLGNEMCEVACHITEESIKNLAHACYSFTLPNLKPVEQKSVVFLYGTKEPARFCIFRLRKYKYSRIIKKNGFSHCGYLLSYPKEYAEMLKENTQ	not soluble
MSLGMRDVAKEAGVSLSTVSLVVNKTGYVSDDMRARVEAAMKELNYVPNELARNLYKNRTNLVGVIVPTIRHPFFATLTAHLQRELAAQGLRTMLCSTADAENGEVEYVDMLRRHMMDGIIVCSHTTHPNDYWTSIHRPIVAFDRVLGGGIASIGSDHEQGGRLMAHMLVNTGAHHVVMIGGPRDQFFDLAARNGDSPDDFDLHKTTFPTVRYYLALEQELKAAGVRYEYVEAGNVEDFQGYKNAVNAVLNSMPVDGVDAVVSSDIGAALCVREAMRRHISIPRDLQIIAYDGTYLTDLAGMKMTAVAQNFDKIAQVAVGNIVRAIAKEGDAKADTTSATGRKPYEPDVLIPVTLKLGDTTREGHHHHHH	soluble
EKQNEIQKKKARRHQLAMDYPEFISTFTLYLGAGMPARRAWFQIASVYRQQENTRYVYEEMVYTMREMQRGTPESECYEHFGMRCGLPVYRKFAVMLSQNLRKGTKGLAELLQREAAGAFEERKAAARKLGEETSTR	not soluble
MASNVSLTGLAHDLKQRAENHPPIRIGLIGCGEMGTDLLSSIAHMDGITVAAVATRTPSRIFDAARLAYGEEGHVREVENASALTRTIEKGLIAATNDIDLVLRHEQIDIIVDATGYPEAGAEIGFKALENNKNLVMMNVEADVTIGAYLKHEAEKQGLIYTLGAGDEPTSCMELIEFVSALGHKI	not soluble
GAMESEEPVFSLEQNRDDAMAALASTPTFQQTFINSISTQAMDLCKKYNLYPSVMIAQAALESNWGRSELGKAPNYNLFGIKGSYNGKSVTMKTWEYSDSKGWYQINANFAKYPSHKESLEDNAKKLRNGPSWDSSYYKGAWRENAKTYKDATAWLQGRYATDNTYASKLNTLISSYNLTQYD	soluble
GPGSMQLQSRAPEHFSTPFFSSPSSSVAYESGCSLDALERLVHFTGAGADACLYAVHPPQAKGTDSAALTPTTEGLRYWLNPSVRARPTTATCEITNLGPPFFASTSTAVLRISATPLFVDGRCFPTRCVVSLATSAQRLDGVSLRPVVVTEWNLTASGAAGVCTTTVPLRTLYHLAVLISSSAPATGVEEVRLYLHLRFMGCSDGSDTHRIAAVRLRYEQLGTAAEVLPQLLQRRQRAAAHVMLPSPYDVKYHSEGRFTRAGAPLEEVEVGVIAGSSTATSSGRKDMGDDAGKSLFVGAKERRTHTSPPSSTRMRSDGCETRGDRRRGRAPRGC	soluble
DRRFQETLDKIRKEEGYDFAAIAFYESNKPSSPIKWHYVSGNKNNRFKLIILRKGRGLAGTVMKTGKRMVIANVGLALGPEEKIDYPILLSESLTAVLAVPLWYKNQVYGVLLFGQRDGRPLPKIFDNDDIQ	not soluble
MTSSQLVKMRLELRRGVLVLAVLGLLKQPHYGYSLRKQLQDGGIDIDEGTLYPLVRRLAEQGLLDSEWRQAEGRERRYYQLSSSGAELLSQLTEEWQQLNGALAFLLGQVTDENAEEN	not soluble
MGSDKIHHHHHHMTPADNEIAEQQNFVDFNSILYTPQYAAGCFGLTTRRLMAIEEEHGLDIKRIKRGSSTSRVYTASDLFNIAALRRSLGHLKPIGRQIVASTFVPKGGTAKTTTAVNLAISAQFAGIKTLIIDNDPQGDTSNMLGYDPDLSPDDLVDMNIPSDRLVDGHFGNLLSPLLRMKPFSEKVLADVIKKPFGENGIHLIPADTYLEDLAVALDASNNSDMWYARFIEDANAGKVPGCDLSVYDLIIIDNAPAGSRLTKNSVAASDLLLCPVRMDKFSFRALLRLHEWCARFAKEYSYAPALMAIPTMFIRKRARLLANLQSLNTLFPGQVTEEKIYFSEDYSKSLDDGIPLMLWKRANSQTIDTARLVFGEILQKIRSLAA	not soluble
MNDSAPRRVRVRAPELIGKGGWLNTGDKQYTLADLRGRIVVLDFWTFCCINCLHVLDELRELEEKHRDTVVIIGVHSPKFVHEAEHQAVVDAVERYGVEHPVLDDPELATWKQYAVRAWPTLVVIDPEGYVVAQHAGEGHAHAIAALVAELEAEHEAKGTLRRGDGPYVAPEPEPTVLRFPGKALLLPSGNFLVSDTTRHQLVELAADGESVVRRIGSGIRGFADGPADAASFSEPQGMTLLDEDVVVVADTVNHALRRLDLATGEVTTLAGTGRQWWQGSPASGPAREVDLSSPWDVAVFGGRVWIAMAGGAPAVDVRPGGGDGRGRGGHDERGAGRRTGLEHHHHHH	soluble
